Molecular target: T1, human LIV-1 (human, UniProt Q13433 29-755)
T1 construct: whole, on cells; also called H-LIV1
T1 sequence (looked up): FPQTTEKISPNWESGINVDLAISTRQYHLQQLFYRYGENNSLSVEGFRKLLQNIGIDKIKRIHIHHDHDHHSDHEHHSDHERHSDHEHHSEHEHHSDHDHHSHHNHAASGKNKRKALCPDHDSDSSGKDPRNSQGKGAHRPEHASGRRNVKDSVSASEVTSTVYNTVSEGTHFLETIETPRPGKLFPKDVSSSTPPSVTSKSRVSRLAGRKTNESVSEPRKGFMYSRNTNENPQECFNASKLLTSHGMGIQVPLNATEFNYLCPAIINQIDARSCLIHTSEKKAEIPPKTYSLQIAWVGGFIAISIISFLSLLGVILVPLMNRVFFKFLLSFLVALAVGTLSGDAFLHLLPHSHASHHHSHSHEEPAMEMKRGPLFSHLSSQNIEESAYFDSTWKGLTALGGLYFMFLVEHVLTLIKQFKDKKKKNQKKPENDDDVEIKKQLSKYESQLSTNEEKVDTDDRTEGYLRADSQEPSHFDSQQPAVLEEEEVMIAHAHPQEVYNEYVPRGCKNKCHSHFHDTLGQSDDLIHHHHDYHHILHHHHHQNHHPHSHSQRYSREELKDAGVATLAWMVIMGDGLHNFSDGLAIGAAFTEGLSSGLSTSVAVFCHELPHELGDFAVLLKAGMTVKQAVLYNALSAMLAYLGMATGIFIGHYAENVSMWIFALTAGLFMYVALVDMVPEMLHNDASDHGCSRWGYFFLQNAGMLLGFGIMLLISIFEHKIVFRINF
Experiment: FACS, HEK293/H_LIV-1 cells
value.type: EC50 (nM)
Answers are plain numbers, in nM.

Answered examples (2):
[
  {
    "binder": "293F10B6 (antibody, V domains shown, Tested as chimeric antibody) VH: QVTLKESGPGMLQPSQTLNLTCSFSGFSLNTSGMGVSWIRQPSGKGLEWLAHIFWDDDKRYNPSLKSRLTISKDVSSNQVFLKITSVDTADTATYFCARRARNNYPWFPYWGQGTLVTVSA VL: DIVLTQSPASLAVSLGQRATISCKASQSVDYDGDSYMNWYQQKPGQPPKLLIYAASNLDSGIPARFSGSGSGTDFTLNIHPMEDEDVATYYCQQSNGAPFTFGGGTKLEIK",
    "EC50 / nM": 0.45
  },
  {
    "binder": "290F10G10 (antibody, V domains shown, Tested as chimeric antibody) VH: IQLQQSGAELARPGASVKLSCKASGYTFTSYWIHWVKERPGQGLEWIGTIYPGDGDTRSTQKFKDKATVTAEKSSSTVYMQLSSLASEDSAVYYCTRSLIHDDYDKYYFDYWGQGTTLTVSS VL: DIQMTQSPSSLSASLGGKVTITCKARQDINKYIAWYQHKPGKGPRLLIHYTSILQPGIPSRFSGSGSGRDYSFSISNLEPEDIATYYCLQYDYFFTFGSGTKLEIK",
    "EC50 / nM": 0.38
  }
]

Let us move to another entry and its EC50.
IN: Which EC50 reading was recorded for the binder 56B3E6 (antibody, V domains shown, Tested as chimeric antibody) VH: EVQLQQSGAELVRSGASVKLSCTASGFNIKDYYIHWVKQRPEQGLEWIGWIDPENDDTEYAPKFQGKATMTADTSSNTAYLHLSSLTSEDTAVYYCPHGGGFRVFDSWGQGTTLTVSS VL: DVLMTQTPLSLPVSLGDQASISCRSSQDIVHSNGNTYLEWYLQKPGQSPKLLIYKVSNRFSGVPDRFSGSGSGTDFTLKISRVEAEDLGVYYCFQGSHVPWTFGGGTKLEIK ?
OUT: 0.13
